# System: L1210 leukemia ip in BDF1 mice, survival T/C
# ASSAY_PROCEDURE: NCI In Vivo Anticancer Drug Screen. Data for tumor model L1210 Leukemia (intraperitoneal) in B6D2F1 (BDF1) mice
# ASSAY_SETUP: endpoint: mean survival time; dose: 200.0 mg/kg/injection; schedule: Q04DX002 (ip); vehicle: saline; higher = longer survival
Inconclusive results and toxic doses are left out.
QUANTITY_MEASURED: T/C

Here is how some molecules turned out for T/C.
{"MOLECULE": "C=CCc1ccc(OC(C)OCCOCCOCC)c(OC)c1 (configuration not stated)", "ENDPOINT_VALUE": "96 % of control"}
{"MOLECULE": "CC(C)(Cc1ccccc1)NC(=O)NCCCl", "ENDPOINT_VALUE": "96 % of control"}
{"MOLECULE": "S=P(c1ccccc1)(c1ccccc1)c1ccccc1", "ENDPOINT_VALUE": "96 % of control"}
{"MOLECULE": "O=C(NCCO)C(=O)NCCO", "ENDPOINT_VALUE": "110 % of control"}
{"MOLECULE": "[Co+2].[NH-]C(CC(N)=O)C(=O)O.[NH-]C(CC(N)=O)C(=O)O (configuration not stated)", "ENDPOINT_VALUE": "86 % of control"}

Respectfully, I request T/C for each entry included below.
1. COc1ccc(C(=O)NC(=S)Nc2cccc([N+](=O)[O-])c2)cc1
2. C=CCOC(=O)C(F)(F)F
3. CN(C)C(=O)OC(C)(C)C
4. CCN(CC)CCOc1ccc(C=O)cc1
5. CC(=O)OCC1OC2OC(C)(C)OC2C1NC(=O)N(C)C(C)=O (configuration not stated)
6. CC1CNC(=O)C(=O)N1 (configuration not stated)
7. C/C=C/C=C\COC(=O)CC

OUT:
1. 91 % of control
2. 86 % of control
3. 101 % of control
4. 95 % of control
5. 103 % of control
6. 102 % of control
7. 100 % of control

* * *

# System: L1210 leukemia ip in BDF1 mice, survival T/C
# ASSAY_PROCEDURE: NCI In Vivo Anticancer Drug Screen. Data for tumor model L1210 Leukemia (intraperitoneal) in B6D2F1 (BDF1) mice
# ASSAY_SETUP: endpoint: mean survival time; dose: 200.0 mg/kg/injection; schedule: Q01DX001 (ip); vehicle: carboxymethylcellulose (CMC); higher = longer survival
Toxic doses and inconclusive results are not listed.
QUANTITY_MEASURED: T/C

{"MOLECULE": "Nc1ccc2c(c1)-c1ccc(F)cc1C2=O", "TESTED_SYSTEM": "L1210 leukemia ip in BDF1 mice, survival T/C", "T/C": "91 % of control"}
{"MOLECULE": "CCOC(=O)Nc1ccc2c(c1)/C(=N\\NC(N)=S)c1ccccc1-2", "TESTED_SYSTEM": "L1210 leukemia ip in BDF1 mice, survival T/C", "T/C": "105 % of control"}
{"MOLECULE": "CCOc1cc(/C=N\\NC(=O)CCCC(=O)N/N=C/c2ccc(O)c(OCC)c2)ccc1O", "TESTED_SYSTEM": "L1210 leukemia ip in BDF1 mice, survival T/C", "T/C": "95 % of control"}

Field: T/C. Fill in for each record below.
1. CC(=O)c1ccc(NC(=O)C(F)(F)F)cc1
2. c1ccc(N2CNN(c3ccccc3)CN2)cc1
3. CCCCCCCCCCCCCCCCCC1=Nc2ccccc2NC(=O)C1
4. CC(=O)Nc1ccc(S(N)(=O)=O)cc1

OUT:
1: 97 % of control; 2: 90 % of control; 3: 98 % of control; 4: 95 % of control

Parameters: items (list). Returns: T/C for each item.
1. Nc1[nH]c(=O)ncc1F
2. CC12CCCC(O)(C1)NC(=O)C2C#N (configuration not stated)
3. C/C(=N\NC(=O)c1ccc([N+](=O)[O-])cc1)c1ccccc1
4. CC(CC(=O)OCC(F)(F)C(F)(F)C(F)(F)C(F)F)CC(=O)OCC(F)(F)C(F)(F)C(F)(F)C(F)F
5. Oc1c2ccccc2cc2cnc3ccccc3c12

OUT:
1. 104 % of control
2. 97 % of control
3. 87 % of control
4. 96 % of control
5. 103 % of control
